Reference for the values: the supplement of paper PMC6992640

test system: HCI09 (cells of a triple-negative luminal androgen receptor type breast cancer xenograft); assay: cell viability (% of vehicle); higher = less cytotoxic; conditions: 10 µM; 72 h;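 further: PDX cells carrying CMV promoter-driven luciferase, viability read as total photon flux per second by IVIS imaging following D-luciferin, vehicle control 0.1% DMSO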
Assign labels as follows, please: true (1) for cell viability below 90; false (0) for cell viability equal to or exceeding 90.

[ask] Identify whether the molecule COc1cc(C(=O)NC2CCCNC2)cc(OC)c1OC (stereo unspecified) [Troxipide] records cell viability below 90.
[reply] false (0)

[ask] Item CCC(=O)OCC(=O)C1(OC(=O)CC)C(C)CC2C3CCC4=CC(=O)C=CC4(C)C3(F)C(O)CC21C (stereo unspecified) [Betamethasone Dipropionate] : cell viability beneath 90, strictly?
[reply] false (0)

[ask] In the record for CNCCC(Oc1cccc2ccccc12)c1cccs1.Cl (stereo unspecified) [Duloxetine HCl] , is cell viability less than 90?
[reply] true (1)

[ask] I wonder whether Cc1cccc(-c2nn3c(c2-c2ccnc4ccc(C(N)=O)cc24)CCC3)n1 has cell viability below 90. Can you tell?
[reply] false (0)

[ask] Would you kindly verify if cell viability of CCOc1nc2cccc(C(=O)OCc3oc(=O)oc3C)c2n1Cc1ccc(-c2ccccc2-c2nc(=O)o[nH]2)cc1 is strictly less than 90?
[reply] false (0)

[ask] Say whether its cell viability is strictly beneath 90. Entry: c1ccc(-c2ccc(C(c3ccccc3)n3ccnc3)cc2)cc1 (stereo unspecified)
[reply] true (1)

[ask] Given CCCCC1C(=O)N(c2ccccc2)N(c2ccccc2)C1=O , is recorded cell viability strictly lower than 90?
[reply] true (1)

[ask] # TODO verify cell viability < 90 strictly for this molecule: Cc1cnc(NC(=O)C2=C(O)c3ccccc3S(=O)(=O)N2C)s1
[reply] false (0)

[ask] Dear colleague, could you confirm whether cell viability of CCOC(=O)C1=C(C)NC(C)=C(C(=O)OC)C1c1cccc([N+](=O)[O-])c1 (stereo unspecified) falls below 90? Thanks.
[reply] false (0)

[ask] Here's an entry: CNCCCC12CCC(c3ccccc31)c1ccccc12.Cl [Maprotiline HCl] . Is its cell viability below 90?
[reply] true (1)

[ask] Report whether reported cell viability is lower than 90 (strictly) for CCCCCCNC(=O)n1cc(F)c(=O)[nH]c1=O
[reply] true (1)

[ask] Below 90 on cell viability? Entry C=C1c2cccc(O)c2C(O)=C2C(=O)C3(O)C(O)=C(C(N)=O)C(=O)C(N(C)C)C3C(O)C12.Cl (stereo unspecified) [Methacycline HCl]
[reply] false (0)

[ask] Lab note: confirm whether the reported cell viability for this molecule is below 90, equality not counting. molecule: Cc1cccc(C)c1OCC(C)N.Cl (stereo unspecified) [Mexiletine HCl]
[reply] false (0)

[ask] cell viability strictly < 90 for this molecule? CCOC(=O)C(CCc1ccccc1)NC1CCc2ccccc2N(CC(=O)O)C1=O.Cl (stereo unspecified) [Benazepril HCl]
[reply] false (0)
